- experimental target: T1, human CD300LB transiently expressed on HEK293 cells (human, UniProt A8K4G0 18-201)
- T1 construct: CD300LB expression constructs'; also called huCD300LB HEK293
- T1 sequence: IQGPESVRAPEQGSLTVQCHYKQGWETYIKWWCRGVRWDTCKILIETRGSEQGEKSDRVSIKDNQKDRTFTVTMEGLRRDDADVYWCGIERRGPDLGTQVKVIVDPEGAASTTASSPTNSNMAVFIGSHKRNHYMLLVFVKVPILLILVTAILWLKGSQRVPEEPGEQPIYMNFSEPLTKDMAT
- measurement description: flow cytometry, transfected HEK293, 10 ug/mL, isotype subtracted
gMFI reference
Answer in gMFI, number only, no unit symbol.

Worked set:
- binder: "anti-CD300LB antibody CD-05 (antibody, V domains shown) VH: QVQLVQSGAEVKKPGASVKVSCKASGYTFSRYYINWVRQAPGQGLEWMGWINPNSGGTNYAQKFQGRVTMTRDTSTSTVYMELSSLRSEDTAVYYCTTDQLRFGKTGPYYGMDVWGQGTTVTVSS VL: DIQMTQSPSSLSASVGDRVTITCRASQNIGTYLNWYQQKPGKAPKLLIYAASSLQSGVPSRFSGSGSGTDFTLTISSLQPEDFATYYCQQSYSDTLTFGGGTKVEIK"
  display unit: "gMFI"
  gMFI: 933
- binder: "anti-CD300LB antibody CD-04 (antibody, V domains shown) VH: QVQLQQSGAELVRPGASVTLSCRASGYTFTDFEMHWVKQTPLHGLEWIGAIAPETGGTAYNQKFKGKAILTADKSSSTAYVELRSLTSEDSAVYFCTRLGGMDYWGQGTSVTVSS VL: DVVMTQTPLSLPVSLGDQASISCRSSQTLVHNNGNTYLYWYLQKPGQSPKLLIYQVSNRFFGVPDRFSGSGSGTDFTLKISRVEAEDLGLYFCSQSTHVPWTFGGGTKLEIK"
  display unit: "gMFI"
  gMFI: 207

Kindly consider the entry below.
Input: Which value of gMFI has been reported for anti-CD300LB antibody CD-01 (antibody, V domains shown) VH: RVQLQQSGAELVRPGASVTLSCKASGFTFTDFEMHWVKKTPVHGLEWIGAIDPESGNTAYNQKFRGKATLTADKSSSTAYMELRYLTSEDSAVYYCTPLISGADYWGQGTTLTVSS VL: DVVMTQSPLSLPVSLGDQASISCRSSQSLVHSDGNTYLYWYLQKPGQSPKLLIYKVSNRFSGVPDRFSGSGSGTDFTFKISRVGAEDLGVYFCSQSTHVPWTFGGGTKLEII in the records?
Output: 166
